Origin of the recorded values: patent US20060079550A1

Target: aspartyl proteases, in particular, beta-secretase
Assay: Ki of the compounds listed in Tables 1 and 2 (no method described)
Type: biochemical
pKi: −log10 of the molar value.
assay readout: pKi

[
  {
    "compound": "CC(C)CN([C@@H](CCCCNC(=O)OCC1c2ccccc2-c2ccccc21)C(=O)O)S(=O)(=O)c1ccc(C(C)(C)C)cc1",
    "assay readout": "pKi",
    "value prefix": "=",
    "number": 6.59
  },
  {
    "compound": "Cc1ccc(S(=O)(=O)N(CC(C)C)C(CNCCNC(=O)CCc2ccccc2)C(=O)O)cc1 (centres unmarked)",
    "assay readout": "pKi",
    "value prefix": "<",
    "number": 6.52
  }
]

###

Target: aspartyl proteases, in particular, beta-secretase
Assay: Ki of the compounds listed in Tables 1 and 2 (no method described)
Assay type: biochemical
Details: Table 1, compounds of formula Ia, W is -(CH2)n-
pKi: −log10 of the molar value.
assay readout: pKi

[
  {
    "compound": "CC(C)CN([C@@H](CCCCNC(=O)C=Cc1ccc([N+](=O)[O-])cc1)C(=O)O)S(=O)(=O)c1ccc([N+](=O)[O-])cc1",
    "measurement target": "aspartyl proteases, in particular, beta-secretase",
    "value prefix": "=",
    "number": 7.46
  },
  {
    "compound": "O=C(N[C@@H](CCCCNS(=O)(=O)c1ccc(Br)cc1)C(=O)O)c1ccccc1",
    "measurement target": "aspartyl proteases, in particular, beta-secretase",
    "value prefix": "<",
    "number": 4.30
  },
  {
    "compound": "O=C(N[C@@H](CCCCNS(=O)(=O)c1ccc(Br)cc1)C(=O)O)C1c2ccccc2-c2ccccc21",
    "measurement target": "aspartyl proteases, in particular, beta-secretase",
    "value prefix": "=",
    "number": 5.33
  },
  {
    "compound": "O=C(NCCCC[C@H](NC(=O)OCC1c2ccccc2-c2ccccc21)C(=O)O)OCC1c2ccccc2-c2ccccc21",
    "measurement target": "aspartyl proteases, in particular, beta-secretase",
    "value prefix": "=",
    "number": 4.35
  },
  {
    "compound": "COc1cccc(CCC(=O)NCCCC[C@@H](C(=O)O)N(CC(C)C)S(=O)(=O)c2ccc(N)cc2)c1",
    "measurement target": "aspartyl proteases, in particular, beta-secretase",
    "value prefix": "=",
    "number": 7.78
  },
  {
    "compound": "O=C(N[C@@H](CNS(=O)(=O)c1ccc(Br)cc1)C(=O)O)OCC1c2ccccc2-c2ccccc21",
    "measurement target": "aspartyl proteases, in particular, beta-secretase",
    "value prefix": "=",
    "number": 4.12
  },
  {
    "compound": "CC(C)CN([C@@H](CCCCNC(=O)OCC1c2ccccc2-c2ccccc21)C(=O)O)S(=O)(=O)c1ccc(Br)cc1",
    "measurement target": "aspartyl proteases, in particular, beta-secretase",
    "value prefix": "=",
    "number": 7.94
  },
  {
    "compound": "CC(C)c1cc(C(C)C)c(S(=O)(=O)NCCCC[C@H](NC(=O)OCC2c3ccccc3-c3ccccc32)C(=O)O)c(C(C)C)c1",
    "measurement target": "aspartyl proteases, in particular, beta-secretase",
    "value prefix": "<",
    "number": 5.51
  },
  {
    "compound": "COc1ccc(C=CC(=O)NCCCC[C@@H](C(=O)O)N(CC(C)C)S(=O)(=O)c2ccc([N+](=O)[O-])cc2)cc1",
    "measurement target": "aspartyl proteases, in particular, beta-secretase",
    "value prefix": "<",
    "number": 6.52
  },
  {
    "compound": "Cc1ccc(S(=O)(=O)N(CC(C)C)[C@@H](CCCCNC(=O)OCc2ccccc2)C(=O)OCc2ccccc2)cc1",
    "measurement target": "aspartyl proteases, in particular, beta-secretase",
    "value prefix": "<",
    "number": 5.90
  },
  {
    "compound": "CC(C)CN([C@@H](CCCCNC(=O)OCC1c2ccccc2-c2ccccc21)C(=O)O)S(=O)(=O)c1cccc2ccccc12",
    "measurement target": "aspartyl proteases, in particular, beta-secretase",
    "value prefix": "=",
    "number": 7.26
  },
  {
    "compound": "COc1cccc(C=CC(=O)NCCCC[C@@H](C(=O)O)N(CC(C)C)S(=O)(=O)c2ccc([N+](=O)[O-])cc2)c1OC",
    "measurement target": "aspartyl proteases, in particular, beta-secretase",
    "value prefix": "<",
    "number": 6.52
  },
  {
    "compound": "O=C(N[C@@H](CCCCNS(=O)(=O)Cc1ccccc1)C(=O)O)OCC1c2ccccc2-c2ccccc21",
    "measurement target": "aspartyl proteases, in particular, beta-secretase",
    "value prefix": "=",
    "number": 4.70
  },
  {
    "compound": "O=C(N[C@@H](CCCNS(=O)(=O)c1ccc([N+](=O)[O-])cc1)C(=O)O)OCC1c2ccccc2-c2ccccc21",
    "measurement target": "aspartyl proteases, in particular, beta-secretase",
    "value prefix": "=",
    "number": 4.58
  },
  {
    "compound": "COc1cccc(C=CC(=O)NCCCC[C@@H](C(=O)O)N(CC(C)C)S(=O)(=O)c2ccc([N+](=O)[O-])cc2)c1",
    "measurement target": "aspartyl proteases, in particular, beta-secretase",
    "value prefix": "<",
    "number": 6.52
  },
  {
    "compound": "O=C(NCCCC[C@H](NS(=O)(=O)c1cccc2ccccc12)C(=O)O)OCC1c2ccccc2-c2ccccc21",
    "measurement target": "aspartyl proteases, in particular, beta-secretase",
    "value prefix": "=",
    "number": 5.63
  },
  {
    "compound": "Cc1ccc(S(=O)(=O)N(CC(C)C)C(CCCCN(CC(C)C)C(=O)CCc2ccccc2)C(=O)O)cc1 (racemic)",
    "measurement target": "aspartyl proteases, in particular, beta-secretase",
    "value prefix": "<",
    "number": 6.52
  },
  {
    "compound": "O=C(CC1c2ccccc2-c2ccccc21)N[C@@H](CCCCNS(=O)(=O)c1ccc(Br)cc1)C(=O)O",
    "measurement target": "aspartyl proteases, in particular, beta-secretase",
    "value prefix": "=",
    "number": 4.15
  },
  {
    "compound": "CC(C)CN([C@@H](CCCCNS(=O)(=O)c1ccc([N+](=O)[O-])cc1)C(=O)O)S(=O)(=O)c1ccc([N+](=O)[O-])cc1",
    "measurement target": "aspartyl proteases, in particular, beta-secretase",
    "value prefix": "<",
    "number": 6.52
  },
  {
    "compound": "Cc1ccc(S(=O)(=O)N(CC(C)C)C(CCCCNC(=S)CCc2ccccc2)C(=O)O)cc1 (racemic)",
    "measurement target": "aspartyl proteases, in particular, beta-secretase",
    "value prefix": "=",
    "number": 6.82
  },
  {
    "compound": "Cc1ccc(S(=O)(=O)N(CC(C)C)[C@@H](CCCCNC(=O)CCc2ccc(O)cc2)C(=O)O)cc1",
    "measurement target": "aspartyl proteases, in particular, beta-secretase",
    "value prefix": "<",
    "number": 6.52
  },
  {
    "compound": "O=C(N[C@@H](CCCCNS(=O)(=O)c1cc(Cl)ccc1Cl)C(=O)O)OCC1c2ccccc2-c2ccccc21",
    "measurement target": "aspartyl proteases, in particular, beta-secretase",
    "value prefix": "<",
    "number": 5.20
  },
  {
    "compound": "COc1ccccc1CCC(=O)NCCCC[C@@H](C(=O)O)N(CC(C)C)S(=O)(=O)c1ccc(N)cc1",
    "measurement target": "aspartyl proteases, in particular, beta-secretase",
    "value prefix": "=",
    "number": 7.72
  },
  {
    "compound": "CC(C)CN([C@@H](CCCCNC(=O)/C=C/c1cccnc1)C(=O)O)S(=O)(=O)c1ccc([N+](=O)[O-])cc1",
    "measurement target": "aspartyl proteases, in particular, beta-secretase",
    "value prefix": "<",
    "number": 6.52
  },
  {
    "compound": "COc1ccc(S(=O)(=O)N(CC(C)C)[C@@H](CCCCNC(=O)OCC2c3ccccc3-c3ccccc32)C(=O)O)cc1",
    "measurement target": "aspartyl proteases, in particular, beta-secretase",
    "value prefix": "=",
    "number": 7.97
  },
  {
    "compound": "Cc1ccc(S(=O)(=O)N(CC(C)C)C(CCCCNC(=O)OCC2c3ccccc3-c3ccccc32)C(N)=O)cc1 (centres unmarked)",
    "measurement target": "aspartyl proteases, in particular, beta-secretase",
    "value prefix": "=",
    "number": 6.97
  }
]
